Data provenance is the supplement of paper PMC10065799.

Molecular target: Hck (UniProt P08631)
Sequence (P08631 whole entry, looked up): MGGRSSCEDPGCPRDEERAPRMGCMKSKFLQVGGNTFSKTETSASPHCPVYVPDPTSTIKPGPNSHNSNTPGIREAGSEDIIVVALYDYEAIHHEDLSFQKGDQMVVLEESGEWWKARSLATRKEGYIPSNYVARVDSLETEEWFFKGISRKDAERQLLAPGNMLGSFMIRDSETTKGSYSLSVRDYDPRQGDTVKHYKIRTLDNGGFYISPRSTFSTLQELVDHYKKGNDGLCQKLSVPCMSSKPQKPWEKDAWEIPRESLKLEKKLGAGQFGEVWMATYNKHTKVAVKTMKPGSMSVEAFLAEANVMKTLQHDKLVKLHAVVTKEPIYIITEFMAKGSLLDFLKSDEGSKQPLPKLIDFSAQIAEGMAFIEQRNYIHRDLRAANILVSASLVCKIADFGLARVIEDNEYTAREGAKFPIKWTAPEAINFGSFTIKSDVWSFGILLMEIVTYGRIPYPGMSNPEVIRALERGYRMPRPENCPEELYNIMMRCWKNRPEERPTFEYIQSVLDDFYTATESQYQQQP
Assay: phosphorylation enrichment, bacterial display (enrichment ratio); higher = better substrate or ligand; peptides without Tyr show the background;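 further: 11-residue human phosphosite peptides and single-mutation variants displayed on the E. coli surface, counted by deep sequencing, each peptide's frequency after selection divided by its frequency in the unselected input library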;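 further: frequency after pTyr selection over input frequency; kinase dosed for 20-30% of maximal phosphorylation in three min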
Hi, to clarify the labels: 1 covers phosphorylation enrichment from 0.5 upward, -1 covers anything below 0.5.

residue_string="VRQQVYKKVEE [HADHA_Y283]" group_label=-1
residue_string="FTRNFYVRAVL [CYBA_Y88_YF]" group_label=1
residue_string="ELSDGYWVVSN [TPP1_Y459_A454E]" group_label=1
residue_string="NFDRIYIYHLR [MYOF_Y1137_V1136I]" group_label=1
residue_string="AEFGLYRAMVR [VSX2_Y222_G223R_YF]" group_label=1
residue_string="HVSISYDIPLT [GAB1_Y307_P311L]" group_label=1
residue_string="ALERPYTSKHS [NANS_Y71]" group_label=-1
residue_string="GLRYGYGGLGG [KRTAP20-2_Y15_V17G]" group_label=-1
residue_string="DAPVVYLGSFG [PRAG1_Y132_R137G]" group_label=1
residue_string="EILLSDLRTGY [TGM1_Y365_Y365D]" group_label=1
residue_string="LEGEEYRMSGE [KRT3_Y511]" group_label=1
residue_string="GRFSGYKSKHG [EPHA3_Y570_C568S]" group_label=-1

* * *

Target: FGFR1 (UniProt P11362)
Sequence (P11362 whole entry, looked up): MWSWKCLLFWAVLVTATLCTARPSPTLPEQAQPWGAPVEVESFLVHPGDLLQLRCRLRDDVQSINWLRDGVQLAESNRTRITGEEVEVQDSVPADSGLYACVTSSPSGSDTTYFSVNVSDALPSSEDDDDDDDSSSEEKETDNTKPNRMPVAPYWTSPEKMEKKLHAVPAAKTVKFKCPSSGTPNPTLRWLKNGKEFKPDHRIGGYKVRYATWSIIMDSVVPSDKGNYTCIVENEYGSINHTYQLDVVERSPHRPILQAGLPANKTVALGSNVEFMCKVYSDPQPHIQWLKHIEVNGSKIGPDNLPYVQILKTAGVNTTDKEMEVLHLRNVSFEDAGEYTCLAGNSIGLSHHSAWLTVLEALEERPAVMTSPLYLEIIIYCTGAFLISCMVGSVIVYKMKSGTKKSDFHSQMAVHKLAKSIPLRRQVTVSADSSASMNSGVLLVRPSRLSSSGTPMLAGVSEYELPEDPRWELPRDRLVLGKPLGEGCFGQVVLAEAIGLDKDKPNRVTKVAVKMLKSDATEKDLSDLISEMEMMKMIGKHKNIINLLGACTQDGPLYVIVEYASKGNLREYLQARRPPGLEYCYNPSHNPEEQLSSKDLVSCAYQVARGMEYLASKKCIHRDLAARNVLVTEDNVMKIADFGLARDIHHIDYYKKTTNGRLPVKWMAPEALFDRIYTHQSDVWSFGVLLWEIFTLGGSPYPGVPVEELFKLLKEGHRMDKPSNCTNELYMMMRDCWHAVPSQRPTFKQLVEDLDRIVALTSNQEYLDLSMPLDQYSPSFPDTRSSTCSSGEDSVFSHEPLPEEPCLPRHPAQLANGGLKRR
Test: phosphorylation enrichment, bacterial display (enrichment ratio); higher = better substrate or ligand; peptides without Tyr show the background
Classification by phosphorylation enrichment follows these ranges: bottom bin (below 0.5), middle bin (0.5 to below 0.7), top bin (0.7 or more)

residue_string="GLTSTYAGIRK [ROBO1_Y932]" group_label="bottom bin"
residue_string="VQSASYLNDCL [MCM3AP_Y864_A867D]" group_label="top bin"
residue_string="PYIDSYEKDVA [PGM1_Y521_L516P]" group_label="top bin"
residue_string="LPPREYVVVPS [CAPN1_Y494_G492R]" group_label="top bin"
residue_string="EPSVPYRGMVF [GLI3_Y104_T107M]" group_label="bottom bin"
residue_string="KVPRHYDDPGK [FOXG1_Y246]" group_label="bottom bin"
residue_string="GLAELYEFQKK [CKAP5_Y1854_K1857Q_YF]" group_label="middle bin"
residue_string="GLAKGYIDPET [CSNK1G2_Y195_E194G]" group_label="bottom bin"
residue_string="KLNNEYLELNY [MME_Y497]" group_label="top bin"
residue_string="WRVISYHVVVW [ATP13A2_Y50_G49S]" group_label="middle bin"
residue_string="ISSLCYELLEE [TRPC6_Y896_R895C]" group_label="top bin"
residue_string="DRPASYLDKVR [KRT17_Y98_L95P]" group_label="bottom bin"
residue_string="KIITDYFVDMK [MPP4_Y566_V562I_YF]" group_label="top bin"
residue_string="GVIRHSVVCST [BTK_Y334_Y334S]" group_label="bottom bin"
residue_string="VNLVLHLSIAK [FBXO15_Y496_Y496H]" group_label="bottom bin"
residue_string="DFPGIYSGYDD [POLR1C_Y33_N32I]" group_label="bottom bin"
residue_string="GIATGYLVLKE [DNMT3B_Y588]" group_label="bottom bin"
residue_string="RKLVDYDSARH [BIN1_Y150]" group_label="middle bin"
residue_string="FPHVIYARLWR [SMAD4_Y95]" group_label="middle bin"
residue_string="SDYYAYSPVQE [H6PD_Y449_R453Q]" group_label="top bin"
residue_string="VYYDLYGGEKF [PTPN11_Y66_D61V]" group_label="top bin"
residue_string="QSVEPYTKQQL [STAT3_Y640]" group_label="middle bin"
residue_string="VVLGSYDRLRV [IFT172_Y260]" group_label="bottom bin"
residue_string="PMFTKYGNSLL [RPGRIP1L_Y196]" group_label="middle bin"
residue_string="VRFVDYVLFRS [FAM189B_Y361_S358F]" group_label="top bin"
residue_string="ALAAPYVLYPG [CEFIP_Y1332]" group_label="top bin"
residue_string="RRIEKYVDQGK [IRAK3_Y61_H57R]" group_label="top bin"
residue_string="CQAHGYSCQLI [STK11_Y156_F157S]" group_label="middle bin"
residue_string="ADYPDYKYRPR [SOX11_Y116]" group_label="middle bin"
residue_string="PATYTYDEYKK [COL8A2_Y648]" group_label="top bin"
residue_string="HHFAAYFQQGD [GPI_Y351_R347H]" group_label="middle bin"
residue_string="RLPSGYGLAFR [DLK1_Y262_YF]" group_label="bottom bin"
residue_string="LSKDLYLISQM [LARP4_Y141]" group_label="top bin"
residue_string="VDGSLYKTHPQ [HK1_Y417]" group_label="bottom bin"
residue_string="TWSSSYRSDRL [CRYBB1_Y131]" group_label="bottom bin"
residue_string="DTYDPYLDVAL [USP36_Y268]" group_label="top bin"
residue_string="SESSYYKSLNL [NGEF_Y289_A286S]" group_label="top bin"
residue_string="PNRILYGDFQQ [MYH7_Y715_R719Q]" group_label="bottom bin"
residue_string="VLSIDYFFPPQ [AR_Y552_P549S_YF]" group_label="top bin"
residue_string="PIFEGYALPHA [ACTA1_Y171_YF]" group_label="middle bin"
residue_string="LPHVIYCRLWC [SMAD2_Y128_R133C]" group_label="middle bin"
residue_string="QEGPEYWDRET [HLA-A_Y83_Q86R]" group_label="top bin"
residue_string="DNEALYDTCFR [TUBB2B_Y208_I210T]" group_label="middle bin"
residue_string="AEQDWYHGAIP [FER_Y461]" group_label="top bin"
residue_string="KAIMTYVFSFF [ACTN4_Y260_S262F_YF]" group_label="bottom bin"
residue_string="SYSGEYGGGGG [ZG16_Y30]" group_label="middle bin"
residue_string="FQRLQYIKQLG [SAMHD1_Y146_R145Q]" group_label="bottom bin"
residue_string="VGSEDYGRDLT [SPTAN1_Y1792]" group_label="middle bin"
residue_string="PLQKTYNHNVL [SLC4A1_Y553_Y555H]" group_label="bottom bin"
residue_string="IINENYDYLKV [NUP98_Y1664_G1669V]" group_label="top bin"
residue_string="IHETTYNSIKK [ACTA1_Y281_M285K]" group_label="bottom bin"
